# target-entity: T1, cynomolgus monkey IL-33 expressed with a C-terminal hexahistidine tag (cynomolgus monkey)
# T1 construct: also called MfIL-33-6His; Mf-IL-33-6His
# T1 chain: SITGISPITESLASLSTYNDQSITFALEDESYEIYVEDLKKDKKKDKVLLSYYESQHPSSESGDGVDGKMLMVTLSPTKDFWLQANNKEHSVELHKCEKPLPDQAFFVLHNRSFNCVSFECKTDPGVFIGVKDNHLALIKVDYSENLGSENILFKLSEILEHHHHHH
# experiment: SPR 37C, pH6.0 chase, mAb captured
metric-name: t½ Ratio (pH 7.4/pH 6.0)

# binder, t½ Ratio (pH 7.4/pH 6.0)
measured = [
    ("H4H9640P (antibody, human IgG4, V domains shown, Human IgG4 Fc (H4H)) VH: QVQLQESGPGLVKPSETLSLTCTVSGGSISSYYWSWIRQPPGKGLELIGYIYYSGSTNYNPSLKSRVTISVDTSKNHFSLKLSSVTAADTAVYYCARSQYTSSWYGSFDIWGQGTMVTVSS VL: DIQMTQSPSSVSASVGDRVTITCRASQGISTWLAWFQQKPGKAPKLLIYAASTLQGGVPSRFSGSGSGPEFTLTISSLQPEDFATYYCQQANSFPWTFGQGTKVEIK", 0.5),
]

Below: the item to evaluate.
(Q) Retrieve t½ Ratio (pH 7.4/pH 6.0) measured for H1M9559N (antibody, mouse IgG1, V domains shown, Human variable domains, mouse IgG1 Fc (H1M)) VH: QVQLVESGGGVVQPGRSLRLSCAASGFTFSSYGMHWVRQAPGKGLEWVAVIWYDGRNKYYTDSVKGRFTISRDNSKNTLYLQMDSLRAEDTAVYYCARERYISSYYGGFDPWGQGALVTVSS VL: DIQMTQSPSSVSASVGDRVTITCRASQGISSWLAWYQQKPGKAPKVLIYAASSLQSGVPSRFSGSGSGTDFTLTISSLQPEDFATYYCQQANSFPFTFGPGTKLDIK and print it.
(A) 0.9
